- Tested On: Muscarinic acetylcholine receptor M4 (Rattus norvegicus)
- Run Description: rat M4 positive allosteric modulator potency, SAR follow-up, selectivity assay for human M4 PAM optimization, CHO cells, Gqi5 chimera, calcium, ACh EC20 (AID 623945)
- Run Conditions: CHO rM4/Gqi5 calcium fluorescence, ACh EC20 potentiation
pEC50: −log10 of the molar value.
Measured Parameter: pEC50

| Smiles Representation | Reading |
| --- | --- |
| Cc1nc2sc(C(=O)NCc3cccc(F)c3F)c(N)c2c(C)c1Cl | 6.94 |
| Cc1nc2sc(C(=O)NCc3ccncn3)c(N)c2c(C)c1Cl | 6.28 |
| COc1ccc(C)c2sc(NC(=O)c3ccncc3)nc12 | 5.49 |
| Cc1nc2sc(C(=O)NCc3ccncc3)c(N)c2c(C)c1Cl | 6.76 |
| Cc1nc2sc(C(=O)NC3CC3)c(N)c2c(C)c1Cl | 6.82 |
| Cc1nc2sc(C(=O)NCc3nccs3)c(N)c2c(C)c1Cl | 6.73 |
| Cc1nc2sc(C(=O)NCCc3ccncc3)c(N)c2c(C)c1Cl | 6.64 |
| Cc1nc2sc(C(=O)NCc3ccc4c(c3)OCO4)c(N)c2c(C)c1Cl | 7.21 |
| Cc1nc2sc(C(=O)NCc3ccccc3)c(N)c2c(C)c1Cl | 6.90 |
| Cc1nc2sc(C(=O)NCc3cccnc3)c(N)c2c(C)c1Cl | 6.57 |
